protocol summary: Plasma concentration by LC-MS after SC, IV or oral administration
Assay type: in vivo, mouse
condition: mouse, plasma, subcutaneous; SC or IV 1 mg/kg
readout type: half-life

stdin: Give me measured half-life, please, for this molecule: O=P(O)(O)Oc1c2c(c(OP(=O)(O)O)c3c1C1CC3c3cc4c(cc31)C1CC4c3ccccc31)C1CC2c2cc3c(cc21)C1CC3c2ccccc21 [CLR01]
stdout: ~2.5 h

Origin of values: paper PMC3996151
